test system: T-cell; assay: CD25 cell surface staining on T-cells co-stimulated with anti-CD3 and anti-CD28 antibody (Biological Example 2); assay type: cell-based, human; settings: Homo sapiens, T-cell, fold change over baseline; 0.3 μM Cbl-b inhibitor; primary human total T-cells; read-out: CD25 staining Anti-CD3/Anti-CD28 stimulation
MEASURED QUANTITY: fold induction at 0.3 µM

MOLECULE	TARGET OF ASSAY	fold induction at 0.3 µM
C[C@H](Cc1nncn1C)c1cccc(NC(=O)c2cc(C(=O)N3C[C@@H](O)C[C@H]3C)ccn2)c1	T-cell	1.01 to 1.3
Cc1ncc(C(=O)Nc2cccc([C@H](C)Sc3nncn3C)c2)nc1C1CC1	T-cell	1.31 to 1.5
C[C@H](Cc1nncn1C)c1cccc(N2Cc3c(ccnc3C3CC3)C2=O)c1	T-cell	1.01 to 1.3
C[C@H](Cc1nncn1C)c1cccc(NC(=O)c2cccc(C(C)(C)C)n2)c1	T-cell	1.01 to 1.3

Could you share which fold induction at 0.3 µM value was measured for C[C@H](Sc1nncn1C)c1cccc(NC(=O)c2ccc(CO)c(C3CC3)n2)c1 ?
1.01 to 1.3

Could you share which fold induction at 0.3 µM value was measured for Cc1cnnn1C[C@@H](C)c1cccc(NC(=O)c2cccc(C(F)(F)F)n2)c1 [Compound 312a] ?
< 1

Could you share which fold induction at 0.3 µM value was measured for Cc1ccc(C(=O)Nc2cccc(C(C)Cc3nccn3C)c2)nc1C1CC1 (centres unmarked) ?
< 1

Could you share which fold induction at 0.3 µM value was measured for C[C@H](Sc1nnc[nH]1)c1cccc(NC(=O)c2cc3ccccc3cn2)c1 ?
< 1

###

system: T-cell; experiment: CD25 cell surface staining on T-cells stimulated with anti-CD3 antibody alone (Biological Example 2); type: cell-based; conditions: 1 μM compound, primary human total T-cells, baseline = anti-CD3/anti-CD28 stimulated cells without inhibitor, read-out: CD25 staining, Anti-CD3 stimulation, fold change over baseline
MEASURED QUANTITY: fold induction at 1 µM

MOLECULE	EXPERIMENTAL RESULT
Cn1cnnc1[C@H](F)[C@@](C)(F)c1cccc(N2Cc3c(cc(C4CC4)cc3C(F)(F)F)C2=O)c1 (stereo in doubt)	0.601 to 0.8
CC(O)c1cc2c(c(C(F)(F)F)c1)CN(c1cccc([C@@](C)(F)C(F)(F)c3nncn3C)c1)C2=O (stereo partly shown)	0.801 to 1
Cn1cnnc1CC1(c2cccc(N3Cc4c(cc(CN5CCC[C@H](F)C5)cc4C(F)(F)F)C3=O)c2)COC1	> 1
CCOc1cc([C@@](C)(F)C(F)(F)c2nncn2C)cc(NC(=O)c2cc(C)nc(C3CC3)n2)n1	0.801 to 1

Reported fold induction at 1 µM for T-cell, given C[C@H](Cc1nncn1C)c1cccc(N2Cc3c(cc(CN4C[C@@H](F)[C@@H](O)C4)cc3C(F)(F)F)C2=O)c1 ?
> 1

Reported fold induction at 1 µM for T-cell, given C[C@H](Cc1nncn1C)c1cccc(N2Cc3c(cc(CN4CC[C@@H](F)C4)cc3C(F)(F)F)C2=O)c1 ?
> 1

Reported fold induction at 1 µM for T-cell, given Cn1cnnc1CC1(c2cccc(N3Cc4c(cc(CO)cc4C(F)(F)F)C3=O)c2)COC1 ?
0.601 to 0.8

###

The reader will find reported IC50 values listed item by item below.
target: Cbl-b (Homo sapiens, UniProt Q13191); assay: Cbl-b inhibition assay (Cbl-b activity assay, FRET, Biological Example 1; 100 mM NaCl, 60 nM Src kinase); format: biochemical; settings: upper bound stated in text lists; read-out: IC50 values in the Cbl-b inhibition assay of Biological Example 1
Sequence (Q13191 36-427): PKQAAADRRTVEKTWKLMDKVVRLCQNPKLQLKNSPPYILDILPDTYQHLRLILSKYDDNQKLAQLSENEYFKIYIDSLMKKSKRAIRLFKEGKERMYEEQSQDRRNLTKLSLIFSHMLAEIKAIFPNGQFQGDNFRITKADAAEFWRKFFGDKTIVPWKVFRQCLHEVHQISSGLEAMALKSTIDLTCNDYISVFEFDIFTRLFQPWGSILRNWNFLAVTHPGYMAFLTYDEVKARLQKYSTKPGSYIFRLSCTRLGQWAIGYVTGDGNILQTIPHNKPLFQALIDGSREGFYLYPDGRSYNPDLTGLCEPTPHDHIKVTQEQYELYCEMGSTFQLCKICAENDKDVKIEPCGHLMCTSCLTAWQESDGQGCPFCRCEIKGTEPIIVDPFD

Could you share which IC50 value was measured for Cc1c[nH]nc1C[C@@H](C)c1cccc(N2Cc3c(cc(C(=O)N4C[C@@H](O)C[C@H]4C)cc3C(F)(F)F)C2=O)c1 ?
≤ 100 nM

Could you share which IC50 value was measured for Cn1cnnc1[C@H](F)C1(c2cccc(N3Cc4c(cc(CN5[C@@H]6CC[C@H]5C[C@@H](F)C6)cc4C(F)(F)F)C3=O)c2)COC1 [Example 672b] ?
≤ 100 nM

Could you share which IC50 value was measured for Cc1cc(C(=O)Nc2cccc(C3(Cc4nncn4C)CC(F)(F)C3)c2)nc(C2CC2)n1 ?
≤ 100 nM

Could you share which IC50 value was measured for Cc1ccc(C(=O)Nc2cccc(C(C)Cc3nccn3C)c2)nc1C1CC1 (stereo not shown) ?
≤ 10000 nM

Could you share which IC50 value was measured for CCOc1cc(NC(=O)c2cc(C)nc(C3CC3)n2)cc(C2(Cc3nncn3C)COC2)c1 ?
≤ 100 nM

Could you share which IC50 value was measured for Cn1cnnc1CC1(c2cccc(N3Cc4c(cc(C(F)(F)C(=O)O)cc4C(F)(F)F)C3=O)c2)COC1 ?
≤ 1000 nM

Could you share which IC50 value was measured for C[C@@H]1CCN(Cc2cc3c(c(C(F)(F)F)c2)CN(c2cccc(C4(Cc5nncn5C)COC4)c2)C3=O)C[C@@H]1F [Example 639a] ?
≤ 100 nM

All figures here come from patent US20220324835A1.
